Where do these numbers come from? They come from BigSolDB 2.1.

- Assay conditions: in ethanol, 278.15 K
Recorded endpoint: solubility (mole fraction)
I only need the number, thanks.

[ask] So what does the record say about solubility (mole fraction) for COCCOC(=O)C1=C(C)NC(C)=C(C(=O)OC(C)C)C1c1cccc([N+](=O)[O-])c1 (stereo unspecified) ?
[reply] 0.014

---

- Assay conditions: in ethanol, 298.15 K
Recorded endpoint: solubility (mole fraction)
API note: the answer field is a bare number with no unit suffix.

[ask] I am curious: what solubility (mole fraction) value has been reported for COCCOC(=O)C1=C(C)NC(C)=C(C(=O)OC(C)C)C1c1cccc([N+](=O)[O-])c1 (stereo unspecified) ?
[reply] 0.0221

---

- Assay conditions: in isopentanol, 303.15 K
Recorded endpoint: solubility (mole fraction)
Could you respond with only the numeric value?

[ask] So what does the record say about solubility (mole fraction) for COCCOC(=O)C1=C(C)NC(C)=C(C(=O)OC(C)C)C1c1cccc([N+](=O)[O-])c1 (stereo unspecified) ?
[reply] 0.0126

---

- Assay conditions: in acetonitrile, 278.15 K
Recorded endpoint: solubility (mole fraction)
# answer = number (no unit)

[ask] Look at this molecule and give its reported solubility (mole fraction). COCCOC(=O)C1=C(C)NC(C)=C(C(=O)OC(C)C)C1c1cccc([N+](=O)[O-])c1 (stereo unspecified)
[reply] 0.00161

---

- Assay conditions: in n-pentanol, 283.15 K
Recorded endpoint: solubility (mole fraction)
# answer = number (no unit)

[ask] I would be grateful if you could share the reported solubility (mole fraction) for COCCOC(=O)C1=C(C)NC(C)=C(C(=O)OC(C)C)C1c1cccc([N+](=O)[O-])c1 (stereo unspecified) .
[reply] 0.00919

---

- Assay conditions: in acetone, 298.15 K
Recorded endpoint: solubility (mole fraction)
// response body must contain only the number

[ask] Which solubility (mole fraction) value belongs to COCCOC(=O)C1=C(C)NC(C)=C(C(=O)OC(C)C)C1c1cccc([N+](=O)[O-])c1 (stereo unspecified) ?
[reply] 0.0193

---

- Assay conditions: in ethanol, 303.15 K
Recorded endpoint: solubility (mole fraction)
Just the number, please.

[ask] Reported solubility (mole fraction), compound COCCOC(=O)C1=C(C)NC(C)=C(C(=O)OC(C)C)C1c1cccc([N+](=O)[O-])c1 (stereo unspecified) : ____
[reply] 0.0247

---

- Assay conditions: in cyclohexanone, 298.15 K
Recorded endpoint: solubility (mole fraction)
Enter the number alone.

[ask] What value of measured solubility (mole fraction) is listed for COCCOC(=O)C1=C(C)NC(C)=C(C(=O)OC(C)C)C1c1cccc([N+](=O)[O-])c1 (stereo unspecified) ?
[reply] 0.0239

---

- Assay conditions: in n-pentanol, 288.15 K
Recorded endpoint: solubility (mole fraction)

[ask] Recorded solubility (mole fraction) for COCCOC(=O)C1=C(C)NC(C)=C(C(=O)OC(C)C)C1c1cccc([N+](=O)[O-])c1 (stereo unspecified) , please?
[reply] 0.0103

---

- Assay conditions: in isobutanol, 313.15 K
Recorded endpoint: solubility (mole fraction)
# respond with the number and nothing more

[ask] Tell me the measured solubility (mole fraction) of COCCOC(=O)C1=C(C)NC(C)=C(C(=O)OC(C)C)C1c1cccc([N+](=O)[O-])c1 (stereo unspecified) , please.
[reply] 0.0179

---

- Assay conditions: in n-butanol, 318.15 K
Recorded endpoint: solubility (mole fraction)
Just the number.

[ask] Suppose we examine the molecule COCCOC(=O)C1=C(C)NC(C)=C(C(=O)OC(C)C)C1c1cccc([N+](=O)[O-])c1 (stereo unspecified) ; what solubility (mole fraction) value has been reported?
[reply] 0.0237
